FYI, the data here is from patent US20050069911A1.

biological target: antibody P1; test: peptide competition ELISA; free peptide competes with immobilized target peptide for P1
Where no end group is shown, it is not given here.
measurementName: pIC50
Quick note: pIC50 values are minus log10 of concentrations in mol/L.

Return pIC50 (reported value) for this binder: EPAELTDA (not fully specified) [PSA-derived 8-mer PET peptide EPAELTDA]
7.40
